These data points were gathered from patent US9624197B2.

Below, each entry is listed alongside its reported IC50.
- target.desc: human orexin-2 receptor (Homo sapiens (Human))
- Sequence (O43614 whole entry): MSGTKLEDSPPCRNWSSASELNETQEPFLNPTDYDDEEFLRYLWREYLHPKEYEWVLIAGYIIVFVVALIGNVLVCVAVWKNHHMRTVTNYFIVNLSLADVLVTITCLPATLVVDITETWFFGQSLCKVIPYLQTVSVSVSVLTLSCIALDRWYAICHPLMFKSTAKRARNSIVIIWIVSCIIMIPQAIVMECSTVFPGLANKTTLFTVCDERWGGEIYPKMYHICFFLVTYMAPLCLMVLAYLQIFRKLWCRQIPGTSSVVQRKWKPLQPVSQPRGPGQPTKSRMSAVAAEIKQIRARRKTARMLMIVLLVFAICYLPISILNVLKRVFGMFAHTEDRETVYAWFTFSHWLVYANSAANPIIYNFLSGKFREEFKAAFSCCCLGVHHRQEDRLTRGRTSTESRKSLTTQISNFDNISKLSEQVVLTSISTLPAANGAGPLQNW
- test.details: FLIPR Ca2+ Flux Assay, CHO cells expressing human orexin-2 receptor
- applied.conditions: agonist 70 pM Ala-6,12 human orexin-A, read-out: hOX2R FLIPR IC50
reported.metric: IC50 (nM)

CCN(c1cc(C#N)ccn1)[C@@H]1CC[C@@H](C)N(C(=O)c2ccccc2-n2nccn2)C1 [Example 12]    23
C[C@@H]1CC[C@@H](Nc2cc(C#N)ccn2)CN1C(=O)c1ccccc1-n1ncnn1 [Example 3]    9
COc1c(C#N)ccnc1N[C@@H]1CC[C@@H](C)N(C(=O)c2ccccc2-n2nccn2)C1 [Example 2]    11
COc1c(C#N)ccnc1N(C)[C@@H]1CC[C@@H](C)N(C(=O)c2ccsc2-n2nccn2)C1 [Example 10]    39
CCCN(c1cc(C#N)ccn1)[C@@H]1CC[C@@H](C)N(C(=O)c2ccccc2-n2nccn2)C1 [Example 14]    13
C[C@@H]1CC[C@@H](N(C)c2cc(C#N)ccn2)CN1C(=O)c1ccccc1-n1ncnn1 [Example 9]    32
COc1c(C#N)ccnc1N[C@@H]1CC[C@@H](C)N(C(=O)c2ccsc2-c2ncccn2)C1 [Example 7]    47
C=CCN(c1cc(C#N)ccn1)[C@@H]1CC[C@@H](C)N(C(=O)c2ccccc2-n2nccn2)C1 [Example 13]    23

---

- target.desc: rat orexin-1 receptor (Rattus norvegicus, UniProt P56718)
- test.details: FLIPR Ca2+ Flux Assay, CHO cells expressing rat orexin-1 receptor
- applied.conditions: agonist 70 pM Ala-6,12 human orexin-A, text says rat orexin-1 receptor, read-out: hOX1R FLIPR IC50
pIC50: −log10 of the molar value.
Label Y when pIC50 is at or above 6; otherwise label N.

CC(=O)N(c1cc(C#N)ccn1)[C@@H]1CC[C@@H](C)N(C(=O)c2ccccc2-n2nccn2)C1 [Example 15]    N
C[C@@H]1CC[C@@H](N(C)c2cc(C#N)ccn2)CN1C(=O)c1ccccc1-n1ncnn1 [Example 9]    N
CCN(c1cc(C#N)ccn1)[C@@H]1CC[C@@H](C)N(C(=O)c2ccccc2-n2nccn2)C1 [Example 12]    N
C[C@@H]1CC[C@@H](Nc2cc(C#N)ccn2)CN1C(=O)c1ccccc1-n1nccn1 [Example 1]    N
C[C@@H]1CC[C@@H](Nc2cc(C#N)ccn2)CN1C(=O)c1ccccc1-n1ncnn1 [Example 3]    N
COc1c(C#N)ccnc1N(C)[C@@H]1CC[C@@H](C)N(C(=O)c2ccsc2-c2ncccn2)C1 [Example 11]    N
COc1c(C#N)ccnc1N[C@@H]1CC[C@@H](C)N(C(=O)c2ccsc2-c2ncccn2)C1 [Example 7]    Y
C=CCN(c1cc(C#N)ccn1)[C@@H]1CC[C@@H](C)N(C(=O)c2ccccc2-n2nccn2)C1 [Example 13]    N
CCCN(c1cc(C#N)ccn1)[C@@H]1CC[C@@H](C)N(C(=O)c2ccccc2-n2nccn2)C1 [Example 14]    Y
C[C@@H]1CC[C@@H](N(C)c2cc(C#N)ccn2)CN1C(=O)c1ccccc1-n1nccn1 [Example 8]    N
COc1c(C#N)ccnc1N[C@@H]1CC[C@@H](C)N(C(=O)c2ccccc2-n2nccn2)C1 [Example 2]    Y
COc1c(C#N)ccnc1N(C)[C@@H]1CC[C@@H](C)N(C(=O)c2ccsc2-n2nccn2)C1 [Example 10]    N
